# test: Single dose plasma pharmacokinetics (4 mg/kg i.p.), NCA
# Assay type: in vivo, Sprague-Dawley rats
# assay.context: male, Sprague-Dawley, rat, plasma, ip, 4 mg/kg, male rats, single dose 4 mg/kg i.p.; read-out: AUC 0–12, plasma total
# Text: Age-matched (7–9 weeks) adult female (201–225 g; N = 10) and male (301–325 g; N = 10) jugular vein cannulated Sprague-Dawley rats (Charles River Laboratories) were used for this study. […]

# molecular.string, result.units, AUC(0-t)
measured = [
    ("N#Cc1ccc(C(c2ccc(C#N)cc2)n2cncn2)cc1", "ng·h/mL", 10700),
]

----------
# test: Steady state plasma pharmacokinetics (4 mg/kg i.p. once daily), NCA
# Type: in vivo, Sprague-Dawley rats
# assay.context: Sprague-Dawley, rat, plasma, ip; female rats, steady state, 4 mg/kg i.p. daily for 11 days; read-out: Cmax, plasma total

# molecule, Cmax
measured = [
    ("N#Cc1ccc(C(c2ccc(C#N)cc2)n2cncn2)cc1 [letrozole]", "4830 ng/mL"),
]

----------
# test: Steady state plasma pharmacokinetics (4 mg/kg i.p. once daily), NCA
# Format: in vivo, Sprague-Dawley rats
# assay.context: female, Sprague-Dawley, rat, plasma, ip, 4 mg/kg, female rats, steady state, 4 mg/kg i.p. daily for 11 days; read-out: AUC 0–12, plasma total
quantity.name: AUC(0-t) (ng·h/mL)

# molecular.string, result
measured = [
    ("N#Cc1ccc(C(c2ccc(C#N)cc2)n2cncn2)cc1", 49300),
]

----------
# test: Steady state brain ECF pharmacokinetics by intracerebral microdialysis
# assay.context: male, Sprague-Dawley, rat, brain ECF (striatal microdialysate), ip, 4 mg/kg, brain ECF AUC 0–12, male rats, steady state, 4 mg/kg i.p. daily for 5 days

# compound, result.units, AUC(0-t)
records = [
    ("N#Cc1ccc(C(c2ccc(C#N)cc2)n2cncn2)cc1 [letrozole]", "ng·h/mL", 4800),
]

----------
# test: Steady state plasma pharmacokinetics (4 mg/kg i.p. once daily), NCA
# Assay type: in vivo, Sprague-Dawley rats
# assay.context: male, Sprague-Dawley, rat, plasma, ip, 4 mg/kg, male rats, steady state, 4 mg/kg i.p. daily for 5 days; read-out: AUC 0–24, plasma total
# From the text: Age-matched (7–9 weeks) adult female (201–225 g; N = 10) and male (301–325 g; N = 10) jugular vein cannulated Sprague-Dawley rats (Charles River Laboratories) were used for this study. […]
quantity.name: AUC(0-t) (ng·h/mL)

# compound, result
data = [
    ("N#Cc1ccc(C(c2ccc(C#N)cc2)n2cncn2)cc1 [letrozole]", 24800),
]

----------
# test: Steady state plasma pharmacokinetics (4 mg/kg i.p. once daily), NCA
# Assay type: in vivo, Sprague-Dawley rats
# assay.context: Sprague-Dawley, rat, plasma, ip; female rats, steady state, 4 mg/kg i.p. daily for 11 days; read-out: Tmax, plasma total
quantity.name: Tmax (h)

# molecular.string, result.units, result
rows = [
    ("N#Cc1ccc(C(c2ccc(C#N)cc2)n2cncn2)cc1", "h", 5.3),
]

----------
# test: Single dose plasma pharmacokinetics (4 mg/kg i.p.), NCA
# Format: in vivo, Sprague-Dawley rats
# assay.context: Sprague-Dawley, rat, plasma, ip; female rats, single dose 4 mg/kg i.p.; read-out: Cmax, plasma total
quantity.name: Cmax (ng/mL)

# molecular.string, result
rows = [
    ("N#Cc1ccc(C(c2ccc(C#N)cc2)n2cncn2)cc1", 1200),
]

----------
# test: Steady state plasma pharmacokinetics (4 mg/kg i.p. once daily), NCA
# Assay type: in vivo, Sprague-Dawley rats
# assay.context: Sprague-Dawley, rat, plasma, ip; male rats, steady state, 4 mg/kg i.p. daily for 5 days; read-out: Tmax, plasma total
quantity.name: Tmax (h)

# molecular.string, result
measured = [
    ("N#Cc1ccc(C(c2ccc(C#N)cc2)n2cncn2)cc1", 3.3),
]

----------
# test: Steady state brain ECF pharmacokinetics by intracerebral microdialysis
# assay.context: male, Sprague-Dawley, rat, brain ECF / unbound plasma, intraperitoneal, 4 mg/kg, Kpuu (Cmax brain ECF / plasma unbound), male rats, steady state, 5 days
quantity.name: Kp uu at 120 h

# molecular.string, result
rows = [
    ("N#Cc1ccc(C(c2ccc(C#N)cc2)n2cncn2)cc1", 0.9),
]

----------
# test: Steady state brain ECF pharmacokinetics by intracerebral microdialysis
# assay.context: female, Sprague-Dawley, rat, brain ECF / unbound plasma, intraperitoneal, 4 mg/kg, Kpuu (AUC0-12 brain ECF / plasma unbound), female rats, steady state, 11 days

# molecular.string, Kp uu at 264 h
data = [
    ("N#Cc1ccc(C(c2ccc(C#N)cc2)n2cncn2)cc1", 1.3),
]

----------
# test: Steady state brain ECF pharmacokinetics by intracerebral microdialysis
# assay.context: male, Sprague-Dawley, rat, brain ECF (striatal microdialysate), ip, 4 mg/kg

# compound, result.units, Tmax
records = [
    ("N#Cc1ccc(C(c2ccc(C#N)cc2)n2cncn2)cc1 [letrozole]", "h", 3.3),
]

----------
# test: Single dose brain ECF pharmacokinetics by intracerebral microdialysis
# Assay type: in vivo, Sprague-Dawley rats
# assay.context: Sprague-Dawley, rat, brain ECF (striatal microdialysate), ip; female rats, single dose 4 mg/kg i.p.

# compound, Tmax, h
measured = [
    ("N#Cc1ccc(C(c2ccc(C#N)cc2)n2cncn2)cc1 [letrozole]", 6.9),
]

----------
# test: Steady state plasma pharmacokinetics (4 mg/kg i.p. once daily), NCA
# Assay type: in vivo, Sprague-Dawley rats
# assay.context: Sprague-Dawley, rat, plasma, ip; male rats, steady state, 4 mg/kg i.p. daily for 5 days; read-out: Cmax, plasma total

# molecular.string, Cmax / ng/mL
measured = [
    ("N#Cc1ccc(C(c2ccc(C#N)cc2)n2cncn2)cc1", 1490),
]

----------
# test: Single dose plasma pharmacokinetics (4 mg/kg i.p.), NCA
# Assay type: in vivo, Sprague-Dawley rats
# assay.context: Sprague-Dawley, rat, plasma, intraperitoneal, 4 mg/kg; female rats; read-out: clearance observed in this study

# compound, clearance
records = [
    ("N#Cc1ccc(C(c2ccc(C#N)cc2)n2cncn2)cc1 [letrozole]", "~0.25 mL/min"),
]

----------
# test: Single dose brain ECF pharmacokinetics by intracerebral microdialysis
# Assay type: in vivo, Sprague-Dawley rats
# assay.context: male, Sprague-Dawley, rat, brain ECF / unbound plasma, ip, 4 mg/kg, male rats, single dose 4 mg/kg i.p.; read-out: Kpuu (AUC0-12 brain ECF / plasma unbound)
quantity.name: Kp uu

# molecular.string, result
rows = [
    ("N#Cc1ccc(C(c2ccc(C#N)cc2)n2cncn2)cc1", 0.6),
]

----------
# test: Single dose plasma pharmacokinetics (4 mg/kg i.p.), NCA
# Assay type: in vivo, Sprague-Dawley rats
# assay.context: female, Sprague-Dawley, rat, plasma, ip, 4 mg/kg, female rats, single dose 4 mg/kg i.p.; read-out: AUC 0–12, plasma total

# molecular.string, AUC(0-t)
records = [
    ("N#Cc1ccc(C(c2ccc(C#N)cc2)n2cncn2)cc1", "11700 ng·h/mL"),
]

----------
# test: Single dose brain ECF pharmacokinetics by intracerebral microdialysis
# Type: in vivo, Sprague-Dawley rats
# assay.context: female, Sprague-Dawley, rat, brain ECF / unbound plasma, ip, 4 mg/kg, female rats, single dose 4 mg/kg i.p.; read-out: Kpuu (Cmax brain ECF / plasma unbound)

# molecular.string, Kp uu
measured = [
    ("N#Cc1ccc(C(c2ccc(C#N)cc2)n2cncn2)cc1", 1.4),
]

----------
# test: Single dose brain ECF pharmacokinetics by intracerebral microdialysis
# Format: in vivo, Sprague-Dawley rats
# assay.context: Sprague-Dawley, rat, brain ECF (striatal microdialysate), ip; female rats, single dose 4 mg/kg i.p.; read-out: AUC 0–12, brain ECF

# molecular.string, AUC(0-t)
data = [
    ("N#Cc1ccc(C(c2ccc(C#N)cc2)n2cncn2)cc1", "5750 ng·h/mL"),
]

----------
# test: Single dose plasma pharmacokinetics (4 mg/kg i.p.), NCA
# Assay type: in vivo, Sprague-Dawley rats
# assay.context: Sprague-Dawley, rat, plasma, ip; male rats, single dose 4 mg/kg i.p.; read-out: Tmax, plasma total
quantity.name: Tmax (h)

# molecular.string, quantity.name, result
measured = [
    ("N#Cc1ccc(C(c2ccc(C#N)cc2)n2cncn2)cc1", "Tmax", 6.5),
]

----------
# test: Single dose brain ECF pharmacokinetics by intracerebral microdialysis
# Type: in vivo, Sprague-Dawley rats
# assay.context: Sprague-Dawley, rat, brain ECF (striatal microdialysate), ip; male rats, single dose 4 mg/kg i.p.; read-out: AUC 0–12, brain ECF

# molecular.string, result.units, AUC(0-t)
rows = [
    ("N#Cc1ccc(C(c2ccc(C#N)cc2)n2cncn2)cc1", "ng·h/mL", 2410),
]

----------
# test: Single dose plasma pharmacokinetics (4 mg/kg i.p.), NCA
# Assay type: in vivo, Sprague-Dawley rats
# assay.context: Sprague-Dawley, rat, plasma, ip; female rats, single dose 4 mg/kg i.p.; read-out: Tmax, plasma total

# molecular.string, Tmax
data = [
    ("N#Cc1ccc(C(c2ccc(C#N)cc2)n2cncn2)cc1", "8.5 h"),
]
